target: Rho-associated protein kinase 2 (Homo sapiens) (UniProt O75116); settings: at 1 µM
Sequence (O75116 whole entry, looked up): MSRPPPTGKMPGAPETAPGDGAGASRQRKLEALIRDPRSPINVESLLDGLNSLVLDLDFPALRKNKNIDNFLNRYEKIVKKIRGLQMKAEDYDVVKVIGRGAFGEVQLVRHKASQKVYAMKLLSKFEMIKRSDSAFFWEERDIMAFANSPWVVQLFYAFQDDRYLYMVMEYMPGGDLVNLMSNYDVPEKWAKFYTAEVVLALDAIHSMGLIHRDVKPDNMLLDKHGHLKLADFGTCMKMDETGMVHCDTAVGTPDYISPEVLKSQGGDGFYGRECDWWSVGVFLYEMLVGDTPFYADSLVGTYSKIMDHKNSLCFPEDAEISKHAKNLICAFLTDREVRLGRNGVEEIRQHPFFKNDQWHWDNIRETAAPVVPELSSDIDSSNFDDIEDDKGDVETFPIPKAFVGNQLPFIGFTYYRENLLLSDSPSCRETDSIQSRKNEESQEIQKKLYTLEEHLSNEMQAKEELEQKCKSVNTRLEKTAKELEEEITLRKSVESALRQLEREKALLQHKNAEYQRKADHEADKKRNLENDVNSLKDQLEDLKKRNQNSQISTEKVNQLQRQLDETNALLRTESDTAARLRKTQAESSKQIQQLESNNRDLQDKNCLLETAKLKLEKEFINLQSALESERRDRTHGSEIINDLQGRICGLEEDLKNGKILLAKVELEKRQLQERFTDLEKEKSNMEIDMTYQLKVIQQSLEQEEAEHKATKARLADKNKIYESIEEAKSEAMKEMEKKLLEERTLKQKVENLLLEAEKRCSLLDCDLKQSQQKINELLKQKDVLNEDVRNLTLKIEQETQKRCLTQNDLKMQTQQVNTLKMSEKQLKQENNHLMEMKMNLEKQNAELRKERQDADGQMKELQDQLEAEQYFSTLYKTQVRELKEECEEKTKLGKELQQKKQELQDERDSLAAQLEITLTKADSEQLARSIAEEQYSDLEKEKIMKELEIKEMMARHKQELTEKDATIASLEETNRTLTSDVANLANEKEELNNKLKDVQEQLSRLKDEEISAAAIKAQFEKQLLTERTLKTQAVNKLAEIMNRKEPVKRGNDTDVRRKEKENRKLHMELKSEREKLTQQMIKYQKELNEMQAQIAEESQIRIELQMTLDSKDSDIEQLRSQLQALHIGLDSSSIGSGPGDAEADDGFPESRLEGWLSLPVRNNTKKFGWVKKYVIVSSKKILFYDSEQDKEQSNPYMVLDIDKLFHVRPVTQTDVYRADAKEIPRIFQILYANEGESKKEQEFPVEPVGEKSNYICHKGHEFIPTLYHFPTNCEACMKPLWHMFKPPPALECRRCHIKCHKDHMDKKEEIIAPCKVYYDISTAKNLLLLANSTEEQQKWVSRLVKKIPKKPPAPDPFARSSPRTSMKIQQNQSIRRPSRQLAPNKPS
Description: GSK_PKIS: ROCK2 mean inhibition at 1 uM [Nanosyn]
propertyName: inhibition (%)
Write the answer as a number in %, unit excluded.

Known inhibition results, listed for orientation:
>>> df
                                 itemsmiles  reportedresult
0  COc1cc2ncn(-c3cc(OCc4ccccc4C(F)(F)F)c(C(=O)N(C)C)s3)c2cc1OC            1.56
1  O=C(Nc1n[nH]c2cc(-c3ccc(F)cc3)ccc12)C1CC1            9.75
2  [O-][S+]1CCN(Cc2ccc(-c3ccc4ncnc(Nc5ccc(OCc6cccc(F)c6)c(Cl)c5)c4c3)o2)CC1            5.33
3  c1cc(-c2cnn3nc(N4CCOCC4)ccc23)nc(NC2CC2)n1            10.7
4  COc1ccc(-c2nn3ncccc3c2-c2ccnc(Nc3ccc4c(c3)OCCO4)n2)cc1            1.51

Sure, the documented inhibition for COc1ccc(-c2cc(-c3c[nH]nc3-c3ccccn3)ccn2)cc1 is 7.92

Sure, the documented inhibition for CCn1c(-c2nonc2N)nc2c(C#CC(C)(C)O)ncc(OC3CCNCC3)c21 is 22.6

Sure, the documented inhibition for CCNC(=O)O[C@H]1CN[C@H](C#Cc2cc3ncnc(Nc4ccc(OCc5cccc(F)c5)c(Cl)c4)c3s2)C1 is 0.32

Sure, the documented inhibition for COc1ccc2[nH]c3c4[nH]c5ccc(OC)cc5c4c4c(c3c2c1)C(=O)NC4=O is 16.6

###

target: Proto-oncogene tyrosine-protein kinase Src (Homo sapiens) (UniProt P12931); settings: at 1 µM;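 further: each value is an averaged percent inhibition of SRC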
Sequence (P12931 2-536 limits assumed): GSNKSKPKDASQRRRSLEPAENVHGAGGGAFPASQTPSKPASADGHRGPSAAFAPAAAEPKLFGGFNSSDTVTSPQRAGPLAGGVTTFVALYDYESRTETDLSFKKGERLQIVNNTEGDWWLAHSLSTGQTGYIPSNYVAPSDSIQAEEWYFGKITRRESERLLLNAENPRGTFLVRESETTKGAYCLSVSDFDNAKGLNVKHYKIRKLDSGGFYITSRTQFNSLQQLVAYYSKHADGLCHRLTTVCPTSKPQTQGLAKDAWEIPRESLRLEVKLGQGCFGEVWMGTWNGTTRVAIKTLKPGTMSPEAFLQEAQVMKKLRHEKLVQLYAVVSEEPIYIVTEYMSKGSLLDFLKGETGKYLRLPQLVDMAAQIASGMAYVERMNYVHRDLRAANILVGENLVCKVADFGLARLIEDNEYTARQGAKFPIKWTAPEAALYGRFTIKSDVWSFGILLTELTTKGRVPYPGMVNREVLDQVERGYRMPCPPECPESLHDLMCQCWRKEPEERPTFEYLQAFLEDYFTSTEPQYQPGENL
propertyName: inhibition

In [3]: df
Out[3]:
                                   compound  propertyname  reportedresult
0  Fc1ccc(-c2nn3ncccc3c2-c2ccnc(Nc3ccc4c(c3)OCCO4)n2)cc1    inhibition           83.9%

Sure, the documented inhibition for Nc1nc(-c2ccc(F)cc2)c(-c2ccc3ncccc3n2)s1 is 14.2%

Sure, the documented inhibition for CC(=O)Nc1cccc(C#Cc2cncnc2Nc2ccc(OCc3cccc(F)c3)c(Cl)c2)c1 is 6.18%

Sure, the documented inhibition for CS(=O)(=O)CCNCc1ccc(-c2ccc3ncnc(Nc4ccc(OCc5ccccc5)c(C(F)(F)F)c4)c3c2)o1 is 7.74%

Sure, the documented inhibition for CCCN1CCC(c2ccc(Nc3nc(Nc4cc(F)ccc4C(N)=O)c4cc[nH]c4n3)c(OC)c2)CC1 is 15.3%

###

Biological target: Testis-specific serine/threonine-protein kinase 2 (Homo sapiens) (UniProt Q96PF2);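 further: each value is the mean percent inhibition of TSSK2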
Sequence (whole entry): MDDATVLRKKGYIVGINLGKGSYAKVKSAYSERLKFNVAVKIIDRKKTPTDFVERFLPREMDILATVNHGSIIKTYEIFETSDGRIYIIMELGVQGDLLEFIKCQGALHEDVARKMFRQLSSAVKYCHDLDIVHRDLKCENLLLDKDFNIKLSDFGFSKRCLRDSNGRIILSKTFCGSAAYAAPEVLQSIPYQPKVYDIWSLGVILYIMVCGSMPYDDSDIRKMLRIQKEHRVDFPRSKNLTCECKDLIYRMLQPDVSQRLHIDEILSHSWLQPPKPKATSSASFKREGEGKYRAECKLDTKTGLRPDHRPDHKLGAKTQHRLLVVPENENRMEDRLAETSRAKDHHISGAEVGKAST
Settings: at 1 µM
propertyName: inhibition (%)
Write the answer as a number in %, unit excluded.

Known inhibition results, listed for orientation:
>>> df
                                   compound  propertyname  reportedresult
0  Nc1nc(-c2cccc(Cl)c2)c(-c2ccc3ncccc3n2)s1    inhibition            6.73
1   Nc1nc(-c2ccc(F)cc2)c(-c2ccc3ncccc3n2)s1    inhibition            2.23
2  CCOc1ccc2c(-c3ccnc(Nc4cccc(C(F)(F)F)c4)n3)cnn2n1    inhibition            0.22
3          CNC(=O)c1cncc(/C=C/c2ccccc2Cl)c1    inhibition            2.91
4         N#Cc1c(NC(=O)CN2CCOCC2)sc2c1CCCC2    inhibition            2.29

Sure, the documented inhibition for COc1ccc(CNC(=O)c2ccc(-c3cc(-c4nnc(C)o4)ccc3C)cc2)cc1 is 6.58

Sure, the documented inhibition for Fc1cccc(COc2ccc(Nc3ncnc4sc(-c5ccco5)cc34)cc2Cl)c1 is 2.23

Sure, the documented inhibition for COc1ccc(-c2nn3ncccc3c2-c2ccnc(Nc3ccc4c(c3)OCCO4)n2)cc1 is -0.78

Sure, the documented inhibition for [O-][S+]1CCN(Cc2ccc(-c3ccc4ncnc(Nc5ccc(OCc6cccc(F)c6)c(Cl)c5)c4c3)o2)CC1 is 3.22

Sure, the documented inhibition for CC(=O)NCc1cccc(C#Cc2cncnc2Nc2ccc(OCc3cccc(F)c3)c(Cl)c2)c1 is 1.59

Sure, the documented inhibition for COc1cc2ncn(-c3cc(OCc4ccccc4C(F)(F)F)c(C(=O)N(C)C)s3)c2cc1OC is 0.32

###

system: Leucine-rich repeat serine/threonine-protein kinase 2 (Homo sapiens), Q5S007 [G2019S]; conditions: at 0.1 µM
Sequence (Q5S007 whole entry G2019S): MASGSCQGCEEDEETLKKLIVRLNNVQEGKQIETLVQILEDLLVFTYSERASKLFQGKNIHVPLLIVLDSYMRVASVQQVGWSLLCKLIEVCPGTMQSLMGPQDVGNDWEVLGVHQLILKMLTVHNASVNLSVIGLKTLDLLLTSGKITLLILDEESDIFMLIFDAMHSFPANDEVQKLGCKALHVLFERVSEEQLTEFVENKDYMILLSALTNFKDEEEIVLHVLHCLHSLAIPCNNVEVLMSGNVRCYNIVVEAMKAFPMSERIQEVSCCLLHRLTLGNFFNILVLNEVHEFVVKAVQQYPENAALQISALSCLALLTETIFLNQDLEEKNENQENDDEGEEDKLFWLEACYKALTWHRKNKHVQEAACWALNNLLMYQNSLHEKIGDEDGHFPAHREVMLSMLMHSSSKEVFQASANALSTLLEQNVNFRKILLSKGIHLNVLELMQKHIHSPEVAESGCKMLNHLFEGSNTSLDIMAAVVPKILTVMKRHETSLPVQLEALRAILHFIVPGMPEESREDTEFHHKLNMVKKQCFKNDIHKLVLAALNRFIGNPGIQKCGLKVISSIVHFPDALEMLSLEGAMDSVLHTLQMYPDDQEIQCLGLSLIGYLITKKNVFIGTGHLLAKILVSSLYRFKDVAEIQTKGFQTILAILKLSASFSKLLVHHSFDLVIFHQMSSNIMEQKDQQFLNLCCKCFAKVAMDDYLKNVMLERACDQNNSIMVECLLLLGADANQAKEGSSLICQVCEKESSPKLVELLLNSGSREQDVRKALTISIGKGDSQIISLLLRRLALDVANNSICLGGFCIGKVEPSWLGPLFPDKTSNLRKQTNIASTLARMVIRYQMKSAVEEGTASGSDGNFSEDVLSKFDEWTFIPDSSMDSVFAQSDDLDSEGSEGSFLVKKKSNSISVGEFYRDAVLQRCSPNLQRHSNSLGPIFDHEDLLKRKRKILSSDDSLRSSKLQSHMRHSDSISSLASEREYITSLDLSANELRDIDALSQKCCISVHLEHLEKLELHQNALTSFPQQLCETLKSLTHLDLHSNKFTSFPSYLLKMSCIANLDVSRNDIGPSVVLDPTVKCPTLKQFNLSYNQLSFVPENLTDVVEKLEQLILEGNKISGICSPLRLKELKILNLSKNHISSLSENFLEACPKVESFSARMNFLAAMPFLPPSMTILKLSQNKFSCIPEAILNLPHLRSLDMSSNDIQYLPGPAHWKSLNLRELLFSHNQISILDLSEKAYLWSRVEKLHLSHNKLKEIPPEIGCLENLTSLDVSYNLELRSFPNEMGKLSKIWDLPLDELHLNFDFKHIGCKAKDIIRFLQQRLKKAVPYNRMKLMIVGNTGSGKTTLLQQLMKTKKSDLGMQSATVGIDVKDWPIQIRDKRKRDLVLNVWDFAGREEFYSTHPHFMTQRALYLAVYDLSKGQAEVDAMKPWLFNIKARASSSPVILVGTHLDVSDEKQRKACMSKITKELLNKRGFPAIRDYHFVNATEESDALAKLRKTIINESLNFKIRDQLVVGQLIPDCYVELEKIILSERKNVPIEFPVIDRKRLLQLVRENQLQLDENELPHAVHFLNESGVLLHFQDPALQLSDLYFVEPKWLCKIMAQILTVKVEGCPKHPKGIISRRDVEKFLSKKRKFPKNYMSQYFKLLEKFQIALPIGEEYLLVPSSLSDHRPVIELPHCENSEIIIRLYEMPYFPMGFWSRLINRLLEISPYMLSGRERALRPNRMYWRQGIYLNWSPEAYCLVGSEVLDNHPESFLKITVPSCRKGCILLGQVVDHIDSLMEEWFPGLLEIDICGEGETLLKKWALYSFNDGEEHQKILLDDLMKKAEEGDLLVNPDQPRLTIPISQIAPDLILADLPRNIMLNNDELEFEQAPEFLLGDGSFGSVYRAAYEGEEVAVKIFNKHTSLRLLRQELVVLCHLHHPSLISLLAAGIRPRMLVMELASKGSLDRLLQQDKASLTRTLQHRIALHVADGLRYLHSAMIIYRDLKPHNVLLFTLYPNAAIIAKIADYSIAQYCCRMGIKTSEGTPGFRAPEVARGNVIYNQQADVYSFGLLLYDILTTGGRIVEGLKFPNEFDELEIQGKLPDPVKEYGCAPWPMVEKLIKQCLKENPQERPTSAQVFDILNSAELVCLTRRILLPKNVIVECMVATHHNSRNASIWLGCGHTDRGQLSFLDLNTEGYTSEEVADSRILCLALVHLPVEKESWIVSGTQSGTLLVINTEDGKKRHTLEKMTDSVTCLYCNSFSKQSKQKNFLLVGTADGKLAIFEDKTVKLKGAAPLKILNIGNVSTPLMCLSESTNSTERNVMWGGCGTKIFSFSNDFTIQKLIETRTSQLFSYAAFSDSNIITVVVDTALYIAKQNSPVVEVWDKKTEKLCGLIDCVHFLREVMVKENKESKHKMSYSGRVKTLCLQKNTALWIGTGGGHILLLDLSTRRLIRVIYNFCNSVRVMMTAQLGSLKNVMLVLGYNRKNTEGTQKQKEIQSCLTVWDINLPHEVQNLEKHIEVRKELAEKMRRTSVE
Entry flag: 1 (yes) if inhibition reaches 8%; 0 (no) if it does not.

>>> df
                                 itemsmiles  assignedlabel
0  Clc1ccc(-c2nn3ncccc3c2-c2ccnc(Nc3ccccc3)n2)cc1         0 (no)
1  CCn1c(-c2nonc2N)nc2c(C#CC(C)(C)O)nc(OC[C@H](N)c3ccccc3)cc21        1 (yes)
2  CC(C)COC(=O)c1ccc2c(c1)/C(=C/Nc1ccc(S(N)(=O)=O)cc1)C(=O)N2        1 (yes)

query: Is inhibition for COc1cc2ncn(-c3cc(OCc4ccccc4C(F)(F)F)c(C(=O)N(C)C)s3)c2cc1OC at or above 8%?
result: 0 (no)

query: Is inhibition for Cc1ccc(O)cc1Nc1ccnc2cc(-c3ccccn3)ccc12 at or above 8%?
result: 0 (no)

###

Target: Discoidin domain-containing receptor 2 (Homo sapiens);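 further: reported values are mean percent inhibition of DDR2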
Sequence (whole entry): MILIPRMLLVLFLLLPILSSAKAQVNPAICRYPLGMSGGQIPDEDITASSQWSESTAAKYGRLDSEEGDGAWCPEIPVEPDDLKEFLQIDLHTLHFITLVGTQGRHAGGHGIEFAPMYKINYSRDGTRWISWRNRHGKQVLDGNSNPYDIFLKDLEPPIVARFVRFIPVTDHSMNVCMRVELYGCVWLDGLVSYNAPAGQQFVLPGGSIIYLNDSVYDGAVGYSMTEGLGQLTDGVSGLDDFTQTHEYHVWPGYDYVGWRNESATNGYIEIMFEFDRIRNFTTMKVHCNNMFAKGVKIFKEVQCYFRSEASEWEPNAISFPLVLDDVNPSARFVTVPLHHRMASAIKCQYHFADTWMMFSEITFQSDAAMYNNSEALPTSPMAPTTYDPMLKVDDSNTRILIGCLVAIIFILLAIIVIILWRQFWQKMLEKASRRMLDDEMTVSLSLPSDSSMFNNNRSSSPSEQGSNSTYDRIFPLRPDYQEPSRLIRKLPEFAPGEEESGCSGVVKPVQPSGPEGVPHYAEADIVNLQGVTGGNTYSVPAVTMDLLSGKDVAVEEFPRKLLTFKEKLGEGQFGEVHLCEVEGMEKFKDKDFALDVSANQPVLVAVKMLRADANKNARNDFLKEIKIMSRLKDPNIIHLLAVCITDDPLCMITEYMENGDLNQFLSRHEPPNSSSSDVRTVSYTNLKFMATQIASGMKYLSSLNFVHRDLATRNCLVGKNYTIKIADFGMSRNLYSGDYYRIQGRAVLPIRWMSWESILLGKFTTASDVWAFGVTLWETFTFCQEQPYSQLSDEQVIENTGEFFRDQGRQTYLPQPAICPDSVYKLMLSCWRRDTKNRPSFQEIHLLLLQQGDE
Conditions: at 0.1 µM
propertyName: inhibition (%)
Write the answer as a number in %, unit excluded.

Known inhibition results, listed for orientation:
                                 itemsmiles                              systemtested  reportedresult
0   NS(=O)(=O)c1ccc(Nc2ncc(-c3ccccc3)o2)cc1  Discoidin domain-containing receptor 2 (Homo sapiens)            1.76
1  COc1ccc(-c2nn3ncccc3c2-c2ccnc(Nc3ccc4c(c3)OCCO4)n2)cc1  Discoidin domain-containing receptor 2 (Homo sapiens)            17.7
2  CN1CCC(n2cnc(-c3ccc(F)cc3)c2-c2ccnc(N)n2)CC1  Discoidin domain-containing receptor 2 (Homo sapiens)            0.93

Sure, the documented inhibition for CCN1CCC(CC(=O)Nc2n[nH]c3nnc(-c4cccc(F)c4F)cc23)CC1 is 1.59

###

biological target: Tyrosine-protein kinase Fer (Homo sapiens) (UniProt P16591); settings: at 1 µM
Description: GSK_PKIS: FER mean inhibition at 1 uM [Nanosyn]
propertyName: inhibition (%)
Write the answer as a number in %, unit excluded.

Sure, the documented inhibition for COc1cc2ncn(-c3cc(OCc4ccccc4C(F)(F)F)c(C(=O)N(C)C)s3)c2cc1OC is 3.02

Sure, the documented inhibition for COc1ccc(-c2cc3c(N)ncnc3o2)cc1 is 1.69

Sure, the documented inhibition for COc1cc2c(cc1Nc1nc(Nc3ccsc3C(N)=O)c3cc[nH]c3n1)N(C(=O)CN(C)C)CCC2(C)C is 94.8

Sure, the documented inhibition for COc1ccc(-c2oc3ncnc(N)c3c2-c2ccc(NC(=O)Nc3cc(C(F)(F)F)ccc3F)cc2)cc1 is 64.5
